tested on: Yap1 mRNA; assay: Antisense inhibition of human Yap1 in A-431 cells by cEt gapmers, single dose (Example 2, RTS4814); assay type: cell-based; conditions: Table 22; Yap1 mRNA as percent of untreated control; 3-10-3 cEt gapmers; single dose
Strand notation (5' to 3'): a small letter for the sugar, then the base; units joined by * are phosphorothioate-linked, units joined directly phosphodiester-linked; [ ] holds rarer units or linkages, { } end groups; capitals alone tell only the bases. k = constrained ethyl (cEt); [5mC] = 5-methylcytosine; d = 2'-deoxy (DNA)
Label condition met when YAP1 (% UTC) >= 40 % UTC; otherwise condition not met.

Could you verify whether the entry 1075560 (kG*k[5mC]*kT*dA*dA*dA*dT*dA*dA*dA*dG*dG*dT*kT*kA*k[5mC]; antisense) [Compound 1075560] shows YAP1 (% UTC) of no less than 40 % UTC? condition met

Entry to check: 1074376 (antisense kA*kA*k[5mC]*dG*dG*dT*dT*d[5mC]*dT*dG*d[5mC]*dT*dG*kT*kG*kA) [Compound 1074376] condition met

Next up: 1075592 (k[5mC]*kG*kT*dA*dA*dT*dA*dA*dT*d[5mC]*dA*d[5mC]*d[5mC]*kT*kT*kA; antisense) [Compound 1075592] condition met

Try 1074184 (antisense kG*k[5mC]*k[5mC]*dG*dG*dT*dT*dG*dA*dG*dG*d[5mC]*dG*kG*k[5mC]*kG) [Compound 1074184] next. condition met

Now consider 1074120 (antisense kG*k[5mC]*kG*dA*dG*dG*d[5mC]*dA*d[5mC]*dT*d[5mC]*dG*dG*kA*k[5mC]*k[5mC]) [Compound 1074120] and answer again. condition met

Again, but for 1075848 (kG*kA*kT*dT*dA*d[5mC]*dA*dA*dT*dG*dG*dG*d[5mC]*kA*kG*kT; antisense) [Compound 1075848] condition not met
